test: yeast display, Sf9 membrane polyspecificity reagent, FACS + sequencing; frameworks hold sequencing errors
measured endpoint: polyreactivity (PSR sort gate)

Field: example entries. Status: answers known.
{"sequence chain": "QVQLVESGGGLVQAGCSLRLSCDASGSIFTWYAIGWYRQAPGKERELVAAITRGGSTYADSVKGRFTISRDNAKNNVYLQMNSLKPEDSAVYYCAARRVPIRVGGYPYYYWGQGSQVTVSS", "measured endpoint": "polyreactivity (PSR sort gate)", "val": "low polyreactivity"}
{"sequence chain": "QVQLVESGGGLVQAGGSLRLSCAASGFIFRYYAMGWYRQAPGKERELVAAISWSGSSTYYADSVKGRFTISRDNAKNTVYLQMNSLKPEDTAVYYCNAVTRNARDYWGQGTLVTVSS", "measured endpoint": "polyreactivity (PSR sort gate)", "val": "high polyreactivity"}
{"sequence chain": "QVQLVESGGGLVQAGGSLRLSCAASGRTFSPYAMGWYRQAPGKERELVAAITSRGASTYYADSVKGRFTISRDNAKNTVYLQMNSLKPEDTAVYYCNSGRTYRRLGDYWGQGTQVTVSS", "measured endpoint": "polyreactivity (PSR sort gate)", "val": "high polyreactivity"}
{"sequence chain": "QVQLVESGGGLVQAGGSLPLSCAAYGFTFWYYAMGWYRQAPGKERELVAAISTGGRTNYADSVKGRFTISRDNAKNTVYLQMNSLKPEDTAFYYCAADQSYFYLYRYRFDYWGQGTQVTVSS", "measured endpoint": "polyreactivity (PSR sort gate)", "val": "high polyreactivity"}

Exercise: Value lookup for polyreactivity (PSR sort gate); key = `QVQLVESGGGLVQAGGSLRLSCAASGGTFRYYTMGWYRQAPGKERELVASISGGGRTYYADSVKGRFTISRDNAKITVYLQMNSLKPEDTAVYYCNARNRVYYTLSGYGYWGQGTQVTVSS`
Key: high polyreactivity

Exercise: Value lookup for polyreactivity (PSR sort gate); key = `QVQLVESGGGLVQAGGSLRLSCAASGLTFTYYAMGWYRQAPGKERELVAAITGGARTYYADSVKGRFTISRDNAKNTVYLQMNSLKPEDTAVYYCATQGAQKRYKYNYWGQGTQVTVSS`
Key: high polyreactivity

Exercise: Value lookup for polyreactivity (PSR sort gate); key = `QVQLVESGGGLVQAGGSLRLSCAATGRIVRGNAMGWYRQAPGKERELVAAISTRGGRTYYADSVKGRFTISRDNAKNTVYLQMTSLKPQDTAVYYCNKGDSASSLDYWGQGTQVTVSS`
Key: high polyreactivity

Exercise: Value lookup for polyreactivity (PSR sort gate); key = `QVQLVESGGGLVQAGGSLRLSCAASGSIFPAYDMGWYRQAPGKERELVAAIDRGGSTYYADSVKGRFTISRDNAKNTVYLQMNSLKPEDTAVYYCATDGQEYPNYISSAGFDYWGQGTQVTVSS`
Key: low polyreactivity

Exercise: Value lookup for polyreactivity (PSR sort gate); key = `HVQLVESGGGLVQAGGSLRLSCAASGFTFRRNAMGWYRQSPGKERELVASITQRGGSTYYADSVKGRFTISRDNAKNTVYLQMNSLKPADTAVYDCNARSWDSFHPHDYWGQGTLVTVSS`
Key: high polyreactivity

Exercise: Value lookup for polyreactivity (PSR sort gate); key = `QVQLVESWGGLVQAGGSLRLSCAASGRTFIRYTMGWYRQAPGKERELVASIRYSGASTSYADSVKGRFTISRDNAKNTVYLQMNSLKPEDTAVYYCAADRYWWWYNSPYSGMDYWGQGTQVTVSS`
Key: high polyreactivity

Exercise: Value lookup for polyreactivity (PSR sort gate); key = `QVQLVESGGGLVQAGGSLRLSCAASGLIFAGYAKGWYRQAPGKERELVAAISTSGGRTYYADSVKGRFTISRDNAKNTVYLQMNSLKPEDTAVYYCAAYPVHGKTQELAKEDYWGQGTQVTVSS`
Key: high polyreactivity

* * *

test: yeast display, Sf9 membrane polyspecificity reagent, FACS + sequencing; frameworks hold sequencing errors
measured endpoint: polyreactivity (PSR sort gate)

Field: example entries. Status: answers known.
{"sequence chain": "QVQLVESGGGLVQAGGSLRLSCAASGSTFDVYAMGWYRQAPGKERELVAAIRSSGGSTFYADSVKGRFTISRDNAKNIVYLQMNSLKPEDTAVYYCAARSFVVSGYNKYYEYGYWGQGTQVTVSS", "val": "low polyreactivity"}
{"sequence chain": "QVQLVESGGGLVQAGGSLRLSCAASGSIFYHYAMGWYRQAPGKERELVAAISRSGGRTYYADSVKGRFTISRDNAKNTVYLQMNSLKPEDTAVYYCNKDYYYPNSWPKYDYWGQGTQVTVSS", "val": "low polyreactivity"}
{"sequence chain": "QVQLVESGGGLVQAGGSLRLSCAASGGIFSVYAMGWYRQAPGKEREFVAAISKSGGRTYYADSVKGRFTISRDNAKNTVYLQMNSLKPEDTAVYYWNVVRRSPGDYSYYYWGQGTQVTVSS", "val": "low polyreactivity"}
{"sequence chain": "QDQLVESGGGLVQAGGSLRLSCAASGRIVSDYAMGWYRQAPGKERELVARISRSDGSSYYADSVKGRFTISRDNAKNTVYLQMNSLKPEDTAVYYCAAQWTDGRRDHWWDKGFYYWGQGTQVTVSS", "val": "low polyreactivity"}

// below: polyreactivity (PSR sort gate) requested for another sequence
Exercise: Value lookup for polyreactivity (PSR sort gate); key = `QVQLVESGGGLVQAGGSLRLSCAASGSTLVTYAMGWYRQAPGKERELVARIDSGGSTNYADSVKGRFTISRDNAKNTVYLQMNSLKPEDTAVYYCSAGGGFYFIWTMDYWGQGTQVTVSS`
Key: low polyreactivity

* * *

test: yeast display, Sf9 membrane polyspecificity reagent, FACS + sequencing; frameworks hold sequencing errors
measured endpoint: polyreactivity (PSR sort gate)

Field: example entries. Status: answers known.
{"sequence chain": "QVHLVESGGGLVQARVSLRLSCAASGSTFFVYTMGWYRQAPGKETEFVATIRRGGNTYADSVKGRFTISRDNAKNSVYLQMNSLKPEDTAVYFCAVVVYQGFRSKYYYWGQGTQVTVSS", "val": "high polyreactivity"}
{"sequence chain": "QVHLVESGGGLVQAGGSLRLSCAASGRTFRYYAMGWYRPAPGKERELVAAISSSGDRTYYADSVKGRFTISRDNAKNTVYLQMNSLKPEDTSVYYCAADRGARGDYYWGQGTQVTVSS", "val": "high polyreactivity"}
{"sequence chain": "QVQLVESGGGLVQAGGSLRLSCASSGRTFYIYAIGWYRQAAGKERELVASISRGGSTTYADSVKGRFTISRDNAKNTVYLQMNSLKPEDTAVYYCNARAYYDMNQWGQGTQVTVSS", "val": "low polyreactivity"}
{"sequence chain": "QVQLVESGGGLLQAGGSLRLSCAASGRTFWWNAMGWYRQAPGKERELVAVISYSGGSTYYADSVKGRFTISRDNAKNTVYLQMNSLKPEDTAVYYCAADLYSHTGYYWGQGTQVTVSS", "val": "high polyreactivity"}
{"sequence chain": "QVQLVESGGGLVQAGGSLRLSSAASGSIFRVNAMGWYRQAPGKERELVAAISTSGGNTYYADSVKGRFTISRDNAKNTVYLQMNSLKPEDTAVYYCNAPWSSFNGFTGRYDYWGQGTQVTVSS", "val": "low polyreactivity"}

Exercise: Value lookup for polyreactivity (PSR sort gate); key = `QVQLVESGGGLVQAGGSLRLSCAASGSIFRPYAMGWYRQAPGKERELVAGITFIGGSTYYADSVKGRFTISRDNAKNTVYLQRNSLKPEDTAVYYCNADVAPGIFYGYDSWGQGTQVTVSS`
Key: low polyreactivity

Exercise: Value lookup for polyreactivity (PSR sort gate); key = `QVQLVESGGGLVQAGGSLRLSCAASGFIFSSYAMGWYRQAPGKEREFVAAIDWNSTSTYYADSVKGRFTISRDNAKNTVYLQMNSLKPEDTAVYYCAADWVGYFVYPYDYWGQGTQVTVSS`
Key: high polyreactivity

Exercise: Value lookup for polyreactivity (PSR sort gate); key = `QVQLVESGGGLVQAGGSLRLSCAASGRIFQYNVMGWYRQAPGKERELVAAISSGGNTYYADSVKGRFTISRDNAKNTVNLPMNSLKPEDTAVYYCAADHYVPWPNYDYDYWGQGTQVTVSS`
Key: low polyreactivity

Exercise: Value lookup for polyreactivity (PSR sort gate); key = `QVQLVETGGGLVQAGGSLRLSCAASGIIFDVYAMGWYRPAPGKERELVAAISYGGGTTYYADSVKGRFTISRDNAKNTVYLQMNSLKPEDTAVYYCAADSYRSIGDDYWGQGTQVTVSS`
Key: high polyreactivity

Exercise: Value lookup for polyreactivity (PSR sort gate); key = `QVQLVESGGGLVPAGGSLLLSCAASGLTFYVYAMGWYRQAPGKERELVAAISSGGRTYYADSVKGRFTISRDNAKNTVYLQMNSLKPEDTAVYYCAAFRHRNYGYWGQGTQVTVSS`
Key: high polyreactivity

Exercise: Value lookup for polyreactivity (PSR sort gate); key = `QVQLVESGGGLVQAGGSLRLSCAASGRIFSPYAMGWYRQAPGKERELVAAISFSAASTYYADSVKGRFTISRDNAKNTVYLQMNSLKPEDTAVYYCAADYWGQGTQVTVSS`
Key: high polyreactivity
